Where do these numbers come from? They come from patent US20060069132A1.

Reported Plant response rating, Surinam Grass values follow for various molecules
Test system: Surinam grass
Assay: Test B pre-/postemergence herbicide test
Format: in vivo, Urochloa decumbens
Settings: Postemergence, 500 g ai/ha; visual rating after 13 to 15 days, scale 0 (no effect) to 100 (complete control)

- Smiles string: "CCn1nc(C(C)(C)C)cc1C(=O)Nc1cccc(C(=O)NCCF)c1"
  Plant response rating, Surinam Grass: 30
- Smiles string: "CON=C(C)c1cccc(NC(=O)c2cc(C(C)(C)C)nn2C)c1"
  Plant response rating, Surinam Grass: 10
- Smiles string: "CCN(CC)C(=O)c1cccc(NC(=O)c2cc(C(C)(C)C)nn2CCF)c1"
  Plant response rating, Surinam Grass: 10
- Smiles string: "CCn1nc(C(C)(C)C)cc1C(=O)Nc1cccc(C(=O)NCC2CC2)c1"
  Plant response rating, Surinam Grass: 70
